Origin of measurements: paper PMC12195677

- System: MDA-MB231
- procedure.text: CellTiter-Glo cell viability/proliferation assay, MDA-MB231
- Type: cell-based, Human
- recorded.conditions: Homo sapiens, MDA-MB-231; 72 h incubation, CellTiter-Glo, mean ± SD; read-out: Cytotoxicity IC50, MDA-MB231
Measured IC50 of individual entries
Don't forget the unit after the value.

Look over these answered cases.
Sample CC(C)c1cc2c(cc1O)[C@@]1(C)CCC[C@@](C)(CN3C(=O)c4ccc(F)cc4C3=O)[C@@H]1CC2 — what was its IC50? 7.6 µM

What does the data say about its IC50? Entry: COc1ccc2c(c1)C(=O)N(C[C@]1(C)CCC[C@]3(C)c4cc(O)c(C(C)C)cc4CC[C@@H]13)C2=O 8.2 µM

Continuing:
Which measured IC50 value corresponds to CC(C)c1cc2c(cc1O)[C@@]1(C)CCC[C@@](C)(CN3C(=O)c4cccc(F)c4C3=O)[C@@H]1CC2 ? 9.4 µM

Requested field: IC50. Item: COc1cccc2c1C(=O)N(C[C@]1(C)CCC[C@]3(C)c4cc(O)c(C(C)C)cc4CC[C@@H]13)C2=O 54.6 µM
